- assay system: Streptokinase A (Streptococcus pyogenes serotype M1)
- Sequence (P10520 whole entry): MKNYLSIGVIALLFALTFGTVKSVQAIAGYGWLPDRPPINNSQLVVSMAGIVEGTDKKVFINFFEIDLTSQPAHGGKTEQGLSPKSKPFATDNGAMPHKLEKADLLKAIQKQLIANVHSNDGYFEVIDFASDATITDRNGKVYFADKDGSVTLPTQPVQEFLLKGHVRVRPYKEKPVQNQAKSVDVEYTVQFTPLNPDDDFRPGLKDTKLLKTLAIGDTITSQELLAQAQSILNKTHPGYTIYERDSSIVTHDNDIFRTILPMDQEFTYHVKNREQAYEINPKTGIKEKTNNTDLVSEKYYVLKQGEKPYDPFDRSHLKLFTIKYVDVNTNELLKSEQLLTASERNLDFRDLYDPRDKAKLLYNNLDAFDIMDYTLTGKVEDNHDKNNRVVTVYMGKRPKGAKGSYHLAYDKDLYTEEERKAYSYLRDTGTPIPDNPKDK
- test description: S. pyogenes streptokinase expression inhibitors, potency, dose response, plasminogen activation absorbance, OD405 (AID 1914);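 note: secreted streptokinase activity via plasminogen activation per viability signal from cell pellet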
- Assay type: functional, Streptococcus pyogenes M1 GAS
Activity calls are given as the source filed them. Cut-off read from the data, not from the text of the source: actives have a measured EC50 and inactives only a lower limit.
test readout: EC50

molecule: CCC/C=C(\CCC)C(NS(=O)(=O)c1ccc(C(F)(F)F)cc1)c1ccccc1 (centres undefined)
test readout: EC50
test result: 2.24 µM (active)

molecule: COc1ccc(CCn2c(C)cc(C(=O)COC(=O)c3ccc(NC(=O)CC#N)cc3)c2C)cc1
test readout: EC50
test result: > 150 µM (not active)

molecule: Cc1ccc(N=Nc2ccc(O)c(P(=O)(c3ccccc3)c3ccccc3)c2)cc1
test readout: EC50
test result: > 150 µM (not active)

molecule: CCCCC[n+]1ccn(C2=C([N-]S(=O)(=O)c3ccc(Br)cc3)C(=O)c3ccccc3C2=O)c1
test readout: EC50
test result: > 150 µM (not active)

molecule: CCOC(=O)c1c(C)oc2c1c(C(c1ccccc1)N1CCOCC1)c(O)c1ccccc12 (centres undefined)
test readout: EC50
test result: 0.886 µM (active)

molecule: CC(=O)OCC1=C(C(=O)O)N2C(=O)C(NC(=O)c3ccc(F)cc3)C2SC1 (centres undefined)
test readout: EC50
test result: > 150 µM (not active)

molecule: CCn1cc(Cl)c(C(=O)N2N=C(c3ccc4ccccc4c3)CC2c2ccccc2O)n1 (centres undefined)
test readout: EC50
test result: 13 µM (active)

molecule: c1ccc2c(Nc3nc4c(s3)CCCC4)cccc2c1
test readout: EC50
test result: 19.6 µM (inconclusive)

molecule: O=[N+]([O-])c1ccc(-c2c[nH]c(SC(c3ccccc3)c3ccccc3)n2)cc1
test readout: EC50
test result: 15.2 µM (active)

Data credit: ChEMBL document CHEMBL1201862
